target: Recombinant HLA-DRB1*1101 protein (human)
MEASURED_PROPERTY: IC50 (nM)

binder="LHEVAYWYILSIGAQTDFLS [FVIII637-656 peptide]" unit_label=nM numeric_readout=300
binder="LYGEVGDTLLIIFKNQASRP [FVIII453-472 peptide]" unit_label=nM numeric_readout=200
binder="LTRYYSSFVNMERDLASGLI [FVIII529-548 peptide]" unit_label=nM numeric_readout=200

These entries and their values trace back to patent US20130116182A1.
